Value source: patent US20160185837A1

Biological target: rat GLP-1 receptor (rat) (UniProt P32301)
Sequence (P32301 22-463): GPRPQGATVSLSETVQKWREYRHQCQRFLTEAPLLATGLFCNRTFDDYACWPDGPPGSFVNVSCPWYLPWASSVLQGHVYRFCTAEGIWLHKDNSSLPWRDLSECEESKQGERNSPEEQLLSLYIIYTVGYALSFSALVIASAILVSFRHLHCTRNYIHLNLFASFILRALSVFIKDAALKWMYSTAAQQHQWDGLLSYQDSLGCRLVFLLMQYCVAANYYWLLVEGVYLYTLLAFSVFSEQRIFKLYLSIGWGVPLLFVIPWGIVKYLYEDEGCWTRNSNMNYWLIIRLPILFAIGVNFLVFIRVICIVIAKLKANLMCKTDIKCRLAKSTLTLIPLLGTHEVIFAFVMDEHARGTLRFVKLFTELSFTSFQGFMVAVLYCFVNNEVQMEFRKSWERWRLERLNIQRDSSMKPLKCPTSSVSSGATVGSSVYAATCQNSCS
Test: cell-based or functional assay
parameterMeasured: cAMP EC50

Example entries begin here.
* IP346 (Fc fusion) YSEGTFTSDYSKLLERQAIDEFIAFLLKGGGGGGGSGGGGSGGGGSGGGGSGGGGSGGGGSA | 0.017 nM
* IP305 (Fc fusion) YSEGTFISDYSIALAAAAVRDFVNWLLAGGGGGGGSGGGGSGGGGSGGGGSATHTCPPC | 47 nM
* IP275 (Fc fusion) YSEGTFTSDYSKLLEKEAQRLFIEWLLKGPGGGGGSGGGGSGGGGSGGGGSATHTCPPC | 0.062 nM

Turning now to a further binder:
Input line: Please report the recorded cAMP EC50 for IP394 (Fc fusion) YSEGMHTSDLSKLLERQAIDEFIAWLLKGGAAAGGSGSTASSGSGSATGGGGAATHTCPPC .
Output line: 0.23 nM
